Measured Anatomical Pathology (Day 10), Heart, listed per entry for reference.
Assay: anatomic pathology (histopathology of heart and kidney) in mice
Format: in vivo
Settings: CD-1 mice, 20 mg/kg intravenously daily for 9 days, necropsy day 10, microscopic histopathology

# COMPOUND, Anatomical Pathology (Day 10), Heart
data = [
    ("N=C1NCC(C(O)C2NC(=O)C(Cc3ccc(OC4OC(CO)C(OC5OC6COC7(OC6C(O)C5O)C5CC6CC(C5)CC7C6)C(O)C4O)cc3)NC(=O)C(CC3CCCCC3)NC(=O)CNC(=O)C(CO)NC(=O)C(C(O)C3CNC(=N)N3C3OC(CO)C(O)C(O)C3O)NC2=O)N1 (centres unmarked) [Example 106]", 0),
    ("CCCCCCCN1CC(C(O)C2NC(=O)C(C(O)C3CNC(=N)N3)NC(=O)C(Cc3ccc(OC4OC(CO)C(OC5OC(CO)C(O)C(O)C5O)C(O)C4O)cc3)NC(=O)C(C(C)c3ccccc3)NC(=O)CNC(=O)C(CO)NC2=O)N(C2OC(CO)C(O)C(O)C2O)C1=N (centres unmarked) [Example 71]", 0),
]
